# Procedure Details: folding stability dG unfold (combined trypsin and chymotrypsin); higher = more stable
Reported folding stability dG unfold values follow for various sequences
Lab book: enter the figure in kcal/mol, no units written.

INSERT INTO results (residue_sequence, recorded_result) VALUES
  ('SAGGSALENLEENEYIVKIEIEKKNKKKIEIVIAGKPEKIKEIEKELKKKGFKILKIEPKKVKDVLSAGGSA [r15_640_TrMRF]', 1.56);

Which folding stability dG unfold is listed for SMTIEGMSPREAVRNIIEEFIEMFEANGNPPMPIKIRFPGNGKPIYEFPIQSKEQLLDQIENGVPVSIEFSA [r9_718_TrROS] ?
0.183

Form field: reported folding stability dG unfold of SAGGSAGGSAGFFRVDIDIMMSPEMLDLMKKNPGLPPGQEIPIMVVIKREPVPYDPNGKLSAGGSAGGSAGG [r17_194_TrROS]
1.8

State the recorded folding stability dG unfold for this entry: SAGGSAGGSAGGSEVEVLDSRPLPDGHHLVLVRFPDGSYALYRIYPDGSVEVEVFSDDGSAGGSAGGSAGGS [r4_483_TrMRF]
3.81

Data request, read-out folding stability dG unfold, for SAGGSAGGSAPVAYTITITYRDPDGSTRTLTLTFPNLTPEEAKEAAEALPIPASVVSIDITKASAGGSAGGS [r12_886_JUSTAS]
3.29

Quick one: folding stability dG unfold for SAGMILTIRPEDGSEEIIPVPKEDIEKLIEDLEKKGIKVLSMTTSPDGVSTIPTQYPDGKKMTITVHLDSAG [r5_645_JUSTAS] ?
0.677
